target: hsTRPM2 (Homo sapiens, UniProt O94759); construct: full-length wild-type cDNA in modified pIRES-hrGFP-2a, transient in HEK-293 cells; homotetramer; inside-out patches (C-terminal 3xHA tag only for surface expression tests); experiment: inside-out patch clamp, HEK-293 cells, -60 mV, dose-response of current activation
Sequence (O94759 whole entry): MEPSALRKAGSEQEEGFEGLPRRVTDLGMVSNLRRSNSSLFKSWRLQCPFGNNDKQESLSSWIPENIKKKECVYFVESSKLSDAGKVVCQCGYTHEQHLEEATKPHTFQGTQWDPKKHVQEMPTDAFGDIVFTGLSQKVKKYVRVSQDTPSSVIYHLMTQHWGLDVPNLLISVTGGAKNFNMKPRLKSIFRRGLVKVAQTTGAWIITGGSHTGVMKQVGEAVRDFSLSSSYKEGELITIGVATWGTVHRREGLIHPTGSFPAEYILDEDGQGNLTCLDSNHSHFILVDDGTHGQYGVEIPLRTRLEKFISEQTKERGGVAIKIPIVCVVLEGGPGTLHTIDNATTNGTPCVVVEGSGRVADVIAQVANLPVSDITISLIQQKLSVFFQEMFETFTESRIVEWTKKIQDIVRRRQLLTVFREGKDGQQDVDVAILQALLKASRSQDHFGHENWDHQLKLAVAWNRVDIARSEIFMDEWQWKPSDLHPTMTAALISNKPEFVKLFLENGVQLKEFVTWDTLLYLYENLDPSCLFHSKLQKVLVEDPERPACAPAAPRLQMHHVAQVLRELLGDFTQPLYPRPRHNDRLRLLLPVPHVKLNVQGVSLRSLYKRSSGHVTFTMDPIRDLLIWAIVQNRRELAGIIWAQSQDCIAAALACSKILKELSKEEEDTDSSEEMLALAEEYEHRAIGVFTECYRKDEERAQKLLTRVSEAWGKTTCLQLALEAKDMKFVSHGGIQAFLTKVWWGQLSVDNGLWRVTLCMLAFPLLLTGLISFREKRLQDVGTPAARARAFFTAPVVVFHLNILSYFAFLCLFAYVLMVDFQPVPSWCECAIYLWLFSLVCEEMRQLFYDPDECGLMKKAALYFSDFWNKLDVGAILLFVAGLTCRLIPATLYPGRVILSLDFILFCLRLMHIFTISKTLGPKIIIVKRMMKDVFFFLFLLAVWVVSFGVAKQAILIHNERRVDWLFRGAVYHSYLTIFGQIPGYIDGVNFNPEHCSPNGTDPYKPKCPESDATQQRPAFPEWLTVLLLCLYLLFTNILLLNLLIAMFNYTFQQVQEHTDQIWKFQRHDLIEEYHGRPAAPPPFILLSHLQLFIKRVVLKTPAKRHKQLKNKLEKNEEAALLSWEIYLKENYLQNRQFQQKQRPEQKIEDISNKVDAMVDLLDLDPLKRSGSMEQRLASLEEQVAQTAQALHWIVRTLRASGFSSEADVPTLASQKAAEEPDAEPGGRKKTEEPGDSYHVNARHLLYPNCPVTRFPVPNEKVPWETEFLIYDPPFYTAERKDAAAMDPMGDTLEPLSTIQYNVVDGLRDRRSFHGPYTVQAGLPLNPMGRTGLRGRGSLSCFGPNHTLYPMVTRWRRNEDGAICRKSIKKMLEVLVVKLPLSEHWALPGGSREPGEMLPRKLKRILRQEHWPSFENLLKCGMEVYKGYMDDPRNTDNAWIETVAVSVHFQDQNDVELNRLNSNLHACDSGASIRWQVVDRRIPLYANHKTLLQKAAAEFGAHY
MEASUREMENT_LABEL: pEC50
Conceptually, pEC50 converts a concentration in mol/L into minus its log10.

# lookup: hsTRPM2 (Homo sapiens, UniProt O94759) pEC50, key = CCCCCCCC(=O)OC[C@H](COP(=O)(O)O[C@@H]1[C@H](O)[C@H](O)[C@@H](OP(=O)(O)O)[C@H](OP(=O)(O)O)[C@H]1O)OC(=O)CCCCCCC [PIP2]
4.92
